Hey, just so you know, these numbers are from paper PMC10661694.

# study.system: T1, human GDNF structured region, residues 110-211 (hGDNF^mat) (human, UniProt P39905 110-211)
# T1 chain: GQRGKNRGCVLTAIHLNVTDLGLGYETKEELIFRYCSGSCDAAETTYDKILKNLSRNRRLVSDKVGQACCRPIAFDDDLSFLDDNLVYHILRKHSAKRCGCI
# assay.name: SPR
measured.parameter: Kd (nM)
Enter your answer as a number in nM; do not include the unit.

q: Value lookup for Kd; key = hGFRα1^D1-CT-K251E L287E (protein) DRLDCVKASDQCLKEQSCSTKYRTLRQCVAGKETNFSLASGLEAKDECRSAMEALKQKSLYNCRCKRGMKKEKNCLRIYWSMYQSLQGNDLLEDSPYEPVNSRLSDIFRVVPFISDVFQQVEHIPKGNNCLDAAKACNLDDICKKYRSAYITPCTTSVSNDVCNRRKCHKALRQFFDKVPAKHSYGMLFCSCRDIACTERRRQTIVPVCSYEEREKPNCLNLQDSCETNYICRSRLADFFTNCQPESRSVSSCLKENYADCLEAYSGLIGTVMTPNYIDSSSLSVAPWCDCSNSGNDLEECLKFLNFFKDNTCLKNAIQAFGNGSDVTVWQPAFPVQTTTATTTTALRVKNKPLGPAGSENEIPTHVLPPCANLQAQKLKSNVSGNTHLCISNGNYEKEG
a: 91
